Each entry below carries its reported EC50, CreLuc assay, 100% hP.
molecular target: human GLP-1 receptor (human, UniProt P43220 24-463); test: cell-based or functional assay
Starred links: 1 amine or outer side, 2 acyl side, 3 side chain; linkers in the order of their positions; H or OH if unused. Non-standard residues stand in square brackets, D forms with d. Groups on a side chain read outwards from the residue. No end group written: not given here. *: point of attachment. C20 diacid = O=C(O)CCCCCCCCCCCCCCCCCCC(=O)*; γGlu = O=C(O)[C@H](CCC(=O)[*:2])N[*:1]; εLys = N[C@@H](CCCCN[*:1])C(=O)[*:2]; AEEA = NCCOCCOCC(=O)O; Aib = CC(C)(N)C(=O)O
Parameter measured: EC50, CreLuc assay, 100% hP (nM)

INSERT INTO results (binder, endpoint_value) VALUES
  ('YXEGTFTSDYSIXLEKQAQXAFVEWLIKGGPSSGESXRHYYNWLTRQRY (Aib at 2, 13, 20, 37; K28 side chain: C20DA-gGlu-gGlu-gGlu-gGlu-gGlu-gGlu-eLys; C-terminal NH2) [Compound 49]', 2.08),
  ('Y[Aib]EGTFTSDYSI[Aib]LEEQAQ[Aib]AFVQWLIK([εLys-AEEA-γGlu-γGlu-γGlu-γGlu-γGlu-C20 diacid])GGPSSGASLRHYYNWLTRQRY-NH2 (also: TFA salt) [Compound 45]', 1.6),
  ('YXEGTFTSDYSIXLEKQAEXAFVQWLIKGGPSSGASLRHYYNWLTRQRY (Aib at 2, 13, 20; K28 side chain: C18DA-gGlu-gGlu-gGlu-gGlu-gGlu-gGlu-eLys; C-terminal NH2) [Compound 51]', 4.66);
